Where do these numbers come from? They come from ChEMBL document CHEMBL4219231.

target: Protein-glutamine gamma-glutamyltransferase (Homo sapiens, UniProt P21980); test: Reversible inhibition of human TGase 2 using Z-Glu(HMC)-Gly-OH as substrate measured at 20 secs interval over 900 secs by fluorimetric assay
Sequence (P21980 whole entry): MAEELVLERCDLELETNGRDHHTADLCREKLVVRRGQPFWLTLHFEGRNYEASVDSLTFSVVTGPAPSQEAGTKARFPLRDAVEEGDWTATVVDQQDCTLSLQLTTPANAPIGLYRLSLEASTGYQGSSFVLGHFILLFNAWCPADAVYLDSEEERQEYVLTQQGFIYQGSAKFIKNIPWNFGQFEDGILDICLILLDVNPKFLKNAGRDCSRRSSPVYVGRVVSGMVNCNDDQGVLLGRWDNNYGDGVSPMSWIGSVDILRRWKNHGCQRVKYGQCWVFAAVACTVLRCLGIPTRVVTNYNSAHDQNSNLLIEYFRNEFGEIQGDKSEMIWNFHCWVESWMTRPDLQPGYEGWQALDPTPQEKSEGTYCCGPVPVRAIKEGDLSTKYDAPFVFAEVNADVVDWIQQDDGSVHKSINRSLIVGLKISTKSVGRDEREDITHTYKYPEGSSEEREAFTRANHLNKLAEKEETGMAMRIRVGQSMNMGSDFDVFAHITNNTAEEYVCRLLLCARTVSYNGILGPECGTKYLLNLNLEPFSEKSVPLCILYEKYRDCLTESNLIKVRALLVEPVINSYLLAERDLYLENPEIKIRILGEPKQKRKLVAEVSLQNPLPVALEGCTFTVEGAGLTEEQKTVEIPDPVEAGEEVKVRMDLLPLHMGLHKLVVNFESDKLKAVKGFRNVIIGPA
readout kind: Ki (µM)
Just the number please, in µM, no unit attached.

{"item smiles": "C=CC(=O)NCCCC[C@H](NC(=O)Cc1ccccc1)C(=O)N1CCN(c2cccc(C)n2)CC1", "Ki, µM": 5.73}
{"item smiles": "C=CC(=O)NCCCC[C@H](NC(=O)Cc1ccccc1)C(=O)N1CCN(c2cccc(Cl)n2)CC1", "Ki, µM": 4.43}

Kindly review the next compound as well.
So, C=CC(=O)NCCCC[C@H](NC(=O)Cc1ccccc1)C(=O)N1CCN(c2cccc(-c3ccccc3)n2)CC1 ? Its Ki was 7.76

====

assay: Metabolic stability in mouse liver microsomes assessed as parent compound remaining at 100 uM measured after 60 mins by HPLC-UV analysis; format: ADME, microsome; conditions: microsomes, 1 h, 100 µM
readout kind: Stability

{"item smiles": "C=CC(=O)NCCCC[C@H](NC(=O)Cc1ccc(F)cc1)C(=O)N1CCN(c2ccc([N+](=O)[O-])nc2)CC1", "Stability": "Stable"}
{"item smiles": "C=CC(=O)NCCCC[C@H](NC(=O)Cc1ccccc1)C(=O)N1CCN(c2ccc(C(F)(F)F)nc2)CC1", "Stability": "Stable"}
{"item smiles": "C=CC(=O)NCCCC[C@H](NC(=O)Cc1ccccc1)C(=O)N1CCN(c2cccc(F)n2)CC1", "Stability": "Unstable"}
{"item smiles": "C=CC(=O)NCCCC[C@H](NC(=O)Cc1ccccc1)C(=O)N1CCN(c2ccncc2)CC1", "Stability": "Stable"}
{"item smiles": "C=CC(=O)NCCCC[C@H](NC(=O)Cc1ccccc1)C(=O)N1CCN(c2ccccn2)CC1", "Stability": "Unstable"}

Kindly review the next compound as well.
So, C=CC(=O)NCCCC[C@H](NC(=O)c1ccc(F)cc1)C(=O)N1CCN(c2ccc([N+](=O)[O-])nc2)CC1 ? Its Stability was Stable

====

experiment: Inhibition of guinea pig TGase 2 using F-Cad/DMC as substrate preincubated for 30 mins followed by substrate addition measured at 30 secs interval over 900 secs by fluorescence anisotropy assay; parameters: species or system Cavia porcellus
# IC50 per entry
In your response, put the unit directly after the numeric value.

{"item smiles": "C=CC(=O)NCCCC[C@H](NC(=O)Nc1ccc(F)cc1)C(=O)N1CCN(c2cccc(C)n2)CC1", "readout kind": "IC50", "result": "460 nM"}
{"item smiles": "C=CC(=O)NCCCC[C@H](NC(=O)Cc1ccccc1)C(=O)N1CCN(c2cccc(OCCF)n2)CC1", "readout kind": "IC50", "result": "270 nM"}
{"item smiles": "C=CC(=O)NCCCC[C@H](NC(=O)Cc1ccccc1)C(=O)N1CCN(c2ccccn2)CC1", "readout kind": "IC50", "result": "310 nM"}
{"item smiles": "C=CC(=O)NCCCC[C@H](NC(=O)Cc1ccccc1)C(=O)N1CCN(c2cccc(-c3ccccc3)n2)CC1", "readout kind": "IC50", "result": "150 nM"}

So, C=CC(=O)NCCCC[C@H](NC(=O)Cc1ccccc1)C(=O)N1CCN(c2cccc(F)n2)CC1 ? Its IC50 was 200 nM

So, C=CC(=O)NCCCC[C@@H](NC(=O)Cc1ccccc1)C(=O)N1CCN(c2cccc(C)n2)CC1 ? Its IC50 was 790 nM

So, C=CC(=O)NCCCC[C@H](NC(=O)Cc1ccccc1)C(=O)N1CCN(c2cccc(Cl)n2)CC1 ? Its IC50 was 160 nM

So, C=CC(=O)NCCCC[C@H](NC(=O)Cc1ccccc1)C(=O)N1CCN(c2cccc(C)n2)CC1 ? Its IC50 was 270 nM
